Reported IC50 values are given for each entry in this list.
measurement-target: FPTase (H-Ras substrate) (UniProt P29702+P49355)
assay-details: in vitro FTase Inhibition Assay, H-Ras as substrate for farnesylation
condition-summary: H-Ras used as substrate for farnesylation

molecule	measurement-target	IC50
COc1ccc(S(=O)(=O)C2(CCCC#Cc3cc([N+](=O)[O-])ccc3C)SC(=O)NC2=O)cc1 (stereo not drawn) [Example 122]	FPTase (H-Ras substrate) (UniProt P29702+P49355)	30 to 50 nM
COC(=O)Nc1ccc(C)c(C#CCCCC2(S(=O)(=O)c3ccc(OC)cc3)SC(=O)N(C(=O)OC)C2=O)c1 (stereo not drawn) [Example 228]	FPTase (H-Ras substrate) (UniProt P29702+P49355)	4 to 70 nM
COc1ccc(S(=O)(=O)C2(CCCC#Cc3ccc(NC(=O)OC(C)(C)C)cc3)SC(=O)NC2=O)cc1 (stereo not drawn) [Example 145]	FPTase (H-Ras substrate) (UniProt P29702+P49355)	1200 to 1700 nM
COc1ccc(S(=O)(=O)C2(CCCC#Cc3cccc(Cl)c3)SC(=O)NC2=O)cc1 (stereo not drawn) [Example 102]	FPTase (H-Ras substrate) (UniProt P29702+P49355)	30 to 32 nM
COc1ccc(S(=O)(=O)C2(CCCC#Cc3ccc(C(F)(F)F)cc3)SC(=O)NC2=O)cc1 (stereo not drawn) [Example 153]	FPTase (H-Ras substrate) (UniProt P29702+P49355)	170 to 200 nM
Cc1ccc(S(=O)(=O)C2(CCC/C=C\c3ccc(Cl)cc3)SC(=O)NC2=O)cc1 (stereo not drawn) [Example 217]	FPTase (H-Ras substrate) (UniProt P29702+P49355)	100 nM
O=C1NC(=O)C(CCCC#Cc2ccc(Cl)cc2)(S(=O)(=O)c2cccc3ccccc23)S1 (stereo not drawn) [Example 113]	FPTase (H-Ras substrate) (UniProt P29702+P49355)	50 to 60 nM
COc1ccc(S(=O)(=O)C2(CCCC#Cc3cc(C(=O)NC(C)(C)C)ccc3C)SC(=O)NC2=O)cc1 (stereo not drawn) [Example 152]	FPTase (H-Ras substrate) (UniProt P29702+P49355)	11 to 16 nM
COc1ccc(S(=O)(=O)C2(CCCC#Cc3ccc(NC(=O)OC(C)(C)C)cc3C)SC(=O)NC2=O)cc1 (stereo not drawn) [Example 149]	FPTase (H-Ras substrate) (UniProt P29702+P49355)	450 to 500 nM
Cc1ccc(S(=O)(=O)C2(CC#Cc3cccs3)SC(=O)NC2=O)cc1 (stereo not drawn) [Example 168]	FPTase (H-Ras substrate) (UniProt P29702+P49355)	280 nM
O=C1NC(=O)C(CCCC#Cc2ccc(-n3cccc3)cc2)(S(=O)(=O)c2ccc(I)cc2)S1 (stereo not drawn) [Example 162]	FPTase (H-Ras substrate) (UniProt P29702+P49355)	1210 nM
Cc1ccc(C#CCCCC2(S(=O)(=O)c3ccc(I)cc3)SC(=O)NC2=O)c(C)c1 (stereo not drawn) [Example 137]	FPTase (H-Ras substrate) (UniProt P29702+P49355)	21 to 400 nM
COc1ccc(S(=O)(=O)C2(CCCC#Cc3cccc([N+](=O)[O-])c3)SC(=O)NC2=O)cc1 (stereo not drawn) [Example 118]	FPTase (H-Ras substrate) (UniProt P29702+P49355)	70 nM
COc1ccc(S(=O)(=O)C2(CCCC#Cc3ccc(Cl)cc3Cl)SC(=O)NC2=O)cc1 (stereo not drawn) [Example 117]	FPTase (H-Ras substrate) (UniProt P29702+P49355)	20 to 30 nM
COc1ccc(S(=O)(=O)C2(CCCC#Cc3cc(NC(=O)OC(C)(C)C)ccc3C)SC(=O)NC2=O)cc1 (single isomer, unassigned; more polar) [Example 223]	FPTase (H-Ras substrate) (UniProt P29702+P49355)	63 nM
